# TEST_METHOD_NOTES: Solubility of triptophenolide in aqueous solutions with different concentrations of gastrodin and/or water-soluble cyclodextrin
# Type: physicochemical
# CONDITION_SUMMARY: aqueous solution of solubilizer, aqueous with cosolvent or surfactant or cyclodextrin, Hydroxypropyl-β-cyclodextrin concentration 8 %
RESULT_TYPE: solubility
Hey, just the number and the unit after it is fine.

// returns reported solubility for input OC[C@H]1O[C@@H](Oc2cc(/C=C/c3cc(O)cc(O)c3)ccc2O)[C@H](O)[C@@H](O)[C@@H]1O
26.1 mg/mL

----------
# TEST_METHOD_NOTES: Solubility of triptophenolide in aqueous solutions with different concentrations of gastrodin and/or water-soluble cyclodextrin
# Assay type: physicochemical
# CONDITION_SUMMARY: aqueous solution of solubilizer, aqueous with cosolvent or surfactant or cyclodextrin, Hydroxypropyl-β-cyclodextrin concentration 10 %
RESULT_TYPE: solubility (mg/mL)
Answer format: numeric, mg/mL implied, no suffix.

// returns reported solubility for input OC[C@H]1O[C@@H](Oc2cc(/C=C/c3cc(O)cc(O)c3)ccc2O)[C@H](O)[C@@H](O)[C@@H]1O
34.1

----------
# TEST_METHOD_NOTES: Solubility of triptophenolide in aqueous solutions with different concentrations of gastrodin and/or water-soluble cyclodextrin
# Type: physicochemical
# CONDITION_SUMMARY: aqueous solution of solubilizer, aqueous with cosolvent or surfactant or cyclodextrin, Gastrodin concentration 5 %
RESULT_TYPE: solubility
Hey, just the number and the unit after it is fine.

// returns reported solubility for input OC[C@H]1O[C@@H](Oc2cc(/C=C/c3cc(O)cc(O)c3)ccc2O)[C@H](O)[C@@H](O)[C@@H]1O
7110 µg/mL

----------
# TEST_METHOD_NOTES: Solubility of triptophenolide in aqueous solutions with different concentrations of gastrodin and/or water-soluble cyclodextrin
# Type: physicochemical
# CONDITION_SUMMARY: aqueous solution of solubilizer, aqueous with cosolvent or surfactant or cyclodextrin, Gastrodin concentration 25 %
RESULT_TYPE: solubility (mg/mL)
Answer format: numeric, mg/mL implied, no suffix.

// returns reported solubility for input OC[C@H]1O[C@@H](Oc2cc(/C=C/c3cc(O)cc(O)c3)ccc2O)[C@H](O)[C@@H](O)[C@@H]1O
38.4

----------
# TEST_METHOD_NOTES: Solubility of triptophenolide in aqueous solutions with different concentrations of gastrodin and/or water-soluble cyclodextrin
# Type: physicochemical
# CONDITION_SUMMARY: aqueous solution of solubilizer, aqueous with cosolvent or surfactant or cyclodextrin, Solubilizer concentration: Gastrodin 0 %, Hydroxypropyl-β-cyclodextrin 3 %
RESULT_TYPE: solubility (mg/mL)
Answer format: numeric, mg/mL implied, no suffix.

// returns reported solubility for input OC[C@H]1O[C@@H](Oc2cc(/C=C/c3cc(O)cc(O)c3)ccc2O)[C@H](O)[C@@H](O)[C@@H]1O
10.8

----------
# TEST_METHOD_NOTES: Solubility of triptophenolide in aqueous solutions with different concentrations of gastrodin and/or water-soluble cyclodextrin
# Assay type: physicochemical
# CONDITION_SUMMARY: aqueous solution of solubilizer, aqueous with cosolvent or surfactant or cyclodextrin, Gastrodin concentration 10 %
RESULT_TYPE: solubility
Hey, just the number and the unit after it is fine.

// returns reported solubility for input OC[C@H]1O[C@@H](Oc2cc(/C=C/c3cc(O)cc(O)c3)ccc2O)[C@H](O)[C@@H](O)[C@@H]1O
11.4 mg/mL
